- system name: T1, human prolactin receptor (PRLR) (human, UniProt P16471 25-622)
- T1 sequence: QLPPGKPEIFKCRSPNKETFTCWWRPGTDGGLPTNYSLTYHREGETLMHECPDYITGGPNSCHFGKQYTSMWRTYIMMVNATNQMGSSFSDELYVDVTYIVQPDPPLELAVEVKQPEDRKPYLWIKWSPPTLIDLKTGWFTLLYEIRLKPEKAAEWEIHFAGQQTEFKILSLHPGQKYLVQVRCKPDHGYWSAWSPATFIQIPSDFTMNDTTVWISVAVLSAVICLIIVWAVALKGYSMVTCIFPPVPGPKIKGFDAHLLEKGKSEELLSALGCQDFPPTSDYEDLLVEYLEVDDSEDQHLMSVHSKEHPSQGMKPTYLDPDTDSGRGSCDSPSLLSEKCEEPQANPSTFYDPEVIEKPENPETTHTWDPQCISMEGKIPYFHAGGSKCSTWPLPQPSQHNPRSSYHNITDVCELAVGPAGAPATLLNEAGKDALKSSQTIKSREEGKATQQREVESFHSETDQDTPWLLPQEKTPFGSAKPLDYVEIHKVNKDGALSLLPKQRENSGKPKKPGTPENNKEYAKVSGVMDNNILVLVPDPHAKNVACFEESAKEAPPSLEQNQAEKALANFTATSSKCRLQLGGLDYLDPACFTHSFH
- run description: cell-based or functional assay
value kind: % Kill, MCF7/ATCC cells

| binder | reported measurement |
| --- | --- |
| H1H6958N2-SPDB-DM4 (antibody, human IgG1, V domains shown, DM4 conjugated through SPDB linker; attachment residues not stated) VH: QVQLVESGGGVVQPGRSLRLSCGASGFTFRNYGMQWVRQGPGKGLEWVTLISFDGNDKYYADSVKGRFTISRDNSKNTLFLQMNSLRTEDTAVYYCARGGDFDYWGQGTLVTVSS VL: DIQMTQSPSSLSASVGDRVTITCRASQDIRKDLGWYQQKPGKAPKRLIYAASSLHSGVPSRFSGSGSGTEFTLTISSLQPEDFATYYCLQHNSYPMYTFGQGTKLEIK | 80% |
